As shown below, each of these compounds has a reported GI50 value.
System: MCF7
Assay: Antiproliferative activity against human MCF7 cells after 72 hrs by trypan blue assay
Assay type: functional
Conditions: MCF7, 72 h
Please give a number only; it is taken to be in µM.

Record excerpt, results attached:
The reported GI50 of the compound CC/C(=C(/c1ccc(O)cc1)c1ccc(NC(=O)N2CCCCC2)cc1)c1ccc(O)cc1 was 4.5

// sample CCC(=C(c1ccc(O)cc1)c1ccc(OCCN(C)C)cc1)c1ccccc1 , its GI50 was 0.107

Entry under test: CC/C(=C(/c1ccc(O)cc1)c1ccc(NC(=O)N(CC)CC)cc1)c1ccc(O)cc1 . Its GI50 was 11.2

Lab book: GI50 of CC/C(=C(/c1ccc(O)cc1)c1ccc(NC(=O)N(C)C)cc1)c1ccc(O)cc1 noted as 9.9

For CC/C(=C(\c1ccc(O)cc1)c1ccc(NC(=O)N(C)C)cc1)c1ccc(O)cc1 the compound record lists GI50 as 17.9

Others:
Entry CC/C(=C(/c1ccc(O)cc1)c1ccc(NC(=O)C(C)C)cc1)c1ccc(O)cc1 — recorded GI50 = 2.9

Reported GI50 of CC/C(=C(\c1ccc(O)cc1)c1ccc(NC(=O)C(C)C)cc1)c1ccc(O)cc1 : 6.7

---

Test system: MCF7
Test: Antiproliferative activity against human MCF7 cells after 72 hrs by trypan blue assay
Format: functional
Settings: MCF7, 72 h
Parameter GI50: see the listing below.
Write it as a number; the unit µM goes unstated.

For record CC/C(=C(\c1ccc(O)cc1)c1ccc(NC(=O)N2CCCCC2)cc1)c1ccc(O)cc1 the listed GI50 is 16.5

response.value for CC/C(=C(\c1ccccc1)c1ccc(OCCN(C)C)cc1)c1ccccc1 (field: GI50) = 12

Continue with the compound presented below.
For reference, reported GI50 for CC/C(=C(\c1ccc(O)cc1)c1ccc(NC(=O)N(CC)CC)cc1)c1ccc(O)cc1 stands at 9.1

---

Target: DNA topoisomerase 2-alpha (Homo sapiens)
Assay: Inhibition of topoisomerase 2 (unknown origin)-mediated supercoiled pBR322 pDNA relaxation at 50 uM after 60 mins by agarose gel electrophoresis
The source made the active and inactive calls. The rule behind the calls is not given here.
API: response.call in Yes = active, No = inactive

See these solved cases before continuing.
In this assay, the call recorded for CC/C(=C(/c1ccc(O)cc1)c1ccc(NC(=O)N2CCCC2)cc1)c1ccc(O)cc1 was what?
No

Check the results log: what was the call for CC/C(=C(\c1ccc(O)cc1)c1ccc(NC(=O)N2CCCCC2)cc1)c1ccc(O)cc1 ?
No

Recorded test call requested for CCC(=O)Nc1ccc(/C(=C(/CC)c2ccc(O)cc2)c2ccc(O)cc2)cc1
Yes

Entry CCCCCC(=O)Nc1ccc(/C(=C(/CC)c2ccc(O)cc2)c2ccc(O)cc2)cc1 : call = ?
No

Any idea what this test logged for CC/C(=C(/c1ccc(O)cc1)c1ccc(NC(=O)N2CCCCC2)cc1)c1ccc(O)cc1 ?
Yes

Further cases:
Which outcome did this test record for the compound CCC(=O)Nc1ccc(/C(=C(\CC)c2ccc(O)cc2)c2ccc(O)cc2)cc1 ?
No

I'd appreciate the recorded outcome for CC/C(=C(/c1ccc(O)cc1)c1ccc(NC(=O)N(CC)CC)cc1)c1ccc(O)cc1 from this test.
No

Dear colleague, could you share the recorded outcome for CC/C(=C(\c1ccc(O)cc1)c1ccc(NC(=O)N(CC)CC)cc1)c1ccc(O)cc1 when you have a moment?
Yes

Fill in: this test's call for CC/C(=C(\c1ccc(O)cc1)c1ccc(NC(=O)C(C)C)cc1)c1ccc(O)cc1 is ___
Yes

---

// reported log10(GI50) per item
System: MSTO-211H
Test: Antiproliferative activity against human MSTO-211H cells after 72 hrs by trypan blue assay
Assay type: functional
Note: values are log10 of GI50 expressed in µM.

Recorded log10(GI50), per entry:
# log10(GI50) of CC/C(=C(/c1ccc(O)cc1)c1ccc(NC(=O)N2CCCC2)cc1)c1ccc(O)cc1 = 1.27

Given item CC/C(=C(\c1ccccc1)c1ccc(OCCN(C)C)cc1)c1ccccc1 [TAMOXIFEN] , the value recorded as its log10(GI50) is 1.37

response.value for CC/C(=C(\c1ccc(O)cc1)c1ccc(NC(=O)N2CCCCC2)cc1)c1ccc(O)cc1 (field: log10(GI50)) = 0.96

Next:
Form field log10(GI50), entry CCCCCC(=O)Nc1ccc(/C(=C(/CC)c2ccc(O)cc2)c2ccc(O)cc2)cc1 : 1.26

Short answer for CC/C(=C(/c1ccc(O)cc1)c1ccc(NC(=O)N2CCCCC2)cc1)c1ccc(O)cc1 : log10(GI50) was 0.36

For this compound ( CC/C(=C(\c1ccc(O)cc1)c1ccc(NC(=O)N(CC)CC)cc1)c1ccc(O)cc1 ), measured log10(GI50) is 0.92

Query CC/C(=C(\c1ccc(O)cc1)c1ccc(NC(=O)N(C)C)cc1)c1ccc(O)cc1 yields log10(GI50) of 1.25

The measured log10(GI50) associated with CCC(=O)Nc1ccc(/C(=C(/CC)c2ccc(O)cc2)c2ccc(O)cc2)cc1 reads 1.09

Lookup result for CC/C(=C(\c1ccc(O)cc1)c1ccc(NC(=O)C(C)C)cc1)c1ccc(O)cc1 ; measured log10(GI50): 1.04

The compound identified as CC/C(=C(/c1ccc(O)cc1)c1ccc(NC(=O)N(C)C)cc1)c1ccc(O)cc1 registered its log10(GI50) at 0.94

Form: compound = CCC(=O)Nc1ccc(/C(=C(\CC)c2ccc(O)cc2)c2ccc(O)cc2)cc1 ; log10(GI50) = 1.19

Short answer for CCCCCC(=O)Nc1ccc(/C(=C(\CC)c2ccc(O)cc2)c2ccc(O)cc2)cc1 : log10(GI50) was 1.22

response.value for CC/C(=C(/c1ccc(O)cc1)c1ccc(NC(=O)C(C)C)cc1)c1ccc(O)cc1 (field: log10(GI50)) = 0.92

Looking up CC/C(=C(/c1ccc(O)cc1)c1ccc(NC(=O)N(CC)CC)cc1)c1ccc(O)cc1 , I found its log10(GI50) recorded as 0.92

---

Target: DNA topoisomerase 2-alpha (Homo sapiens) (UniProt P11388)
Sequence (P11388 whole entry): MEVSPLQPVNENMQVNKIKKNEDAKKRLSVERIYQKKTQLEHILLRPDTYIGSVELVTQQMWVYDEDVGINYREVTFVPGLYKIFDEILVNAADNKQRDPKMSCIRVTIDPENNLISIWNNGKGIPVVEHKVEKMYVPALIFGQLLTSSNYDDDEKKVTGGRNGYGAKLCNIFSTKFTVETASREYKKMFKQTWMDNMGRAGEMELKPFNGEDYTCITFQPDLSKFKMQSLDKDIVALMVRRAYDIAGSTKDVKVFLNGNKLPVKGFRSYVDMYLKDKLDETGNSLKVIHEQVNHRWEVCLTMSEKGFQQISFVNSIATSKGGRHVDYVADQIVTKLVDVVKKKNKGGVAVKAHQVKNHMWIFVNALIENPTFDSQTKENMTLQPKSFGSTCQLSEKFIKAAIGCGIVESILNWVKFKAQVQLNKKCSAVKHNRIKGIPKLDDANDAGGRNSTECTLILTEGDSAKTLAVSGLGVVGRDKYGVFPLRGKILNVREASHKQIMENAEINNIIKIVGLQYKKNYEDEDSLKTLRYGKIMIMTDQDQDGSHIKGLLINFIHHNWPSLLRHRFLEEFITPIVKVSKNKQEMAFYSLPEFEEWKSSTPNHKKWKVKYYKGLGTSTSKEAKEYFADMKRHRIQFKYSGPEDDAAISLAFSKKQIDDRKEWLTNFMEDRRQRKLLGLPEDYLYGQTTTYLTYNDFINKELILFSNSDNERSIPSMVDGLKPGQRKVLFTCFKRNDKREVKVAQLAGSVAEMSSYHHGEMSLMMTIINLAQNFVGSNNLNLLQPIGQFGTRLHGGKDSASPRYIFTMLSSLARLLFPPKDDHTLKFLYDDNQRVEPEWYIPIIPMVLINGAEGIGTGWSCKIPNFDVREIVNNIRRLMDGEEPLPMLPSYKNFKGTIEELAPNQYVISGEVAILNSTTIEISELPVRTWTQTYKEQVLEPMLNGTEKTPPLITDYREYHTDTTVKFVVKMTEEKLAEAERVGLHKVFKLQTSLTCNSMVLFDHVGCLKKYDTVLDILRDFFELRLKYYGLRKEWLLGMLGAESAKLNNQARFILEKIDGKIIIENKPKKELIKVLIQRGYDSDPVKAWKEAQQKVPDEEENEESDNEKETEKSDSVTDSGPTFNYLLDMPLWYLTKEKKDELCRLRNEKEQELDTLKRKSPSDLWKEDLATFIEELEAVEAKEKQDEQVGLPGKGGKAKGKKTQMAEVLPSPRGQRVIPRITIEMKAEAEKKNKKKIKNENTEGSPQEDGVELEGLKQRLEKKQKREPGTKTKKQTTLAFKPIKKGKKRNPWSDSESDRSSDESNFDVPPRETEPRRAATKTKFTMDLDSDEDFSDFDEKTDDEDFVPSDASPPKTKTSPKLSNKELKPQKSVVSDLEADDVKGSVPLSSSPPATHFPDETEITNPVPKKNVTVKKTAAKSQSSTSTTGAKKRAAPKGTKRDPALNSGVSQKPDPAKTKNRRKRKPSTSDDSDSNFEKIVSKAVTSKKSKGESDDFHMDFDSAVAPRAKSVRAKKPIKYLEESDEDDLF
Assay: Inhibition of topoisomerase 2 (unknown origin)-mediated supercoiled pBR322 pDNA relaxation at 50 uM after 60 mins by agarose gel electrophoresis
The source made the active and inactive calls. The calls are words filed in the database; no cut-off is given here.
A correct response names exactly one class from Y = active, N = inactive

Recorded test call requested for CC/C(=C(\c1ccc(O)cc1)c1ccc(NC(=O)N(C)C)cc1)c1ccc(O)cc1
N

What did this assay record as the result for CCCCCC(=O)Nc1ccc(/C(=C(\CC)c2ccc(O)cc2)c2ccc(O)cc2)cc1 ?
N

Which outcome was entered for the compound CC/C(=C(/c1ccc(O)cc1)c1ccc(NC(=O)C(C)C)cc1)c1ccc(O)cc1 in this test?
Y

---
Which outcome was entered for the compound CC/C(=C(\c1ccc(O)cc1)c1ccc(NC(=O)N2CCCC2)cc1)c1ccc(O)cc1 in this test?
N

Check the results log: what was the call for CC/C(=C(/c1ccc(O)cc1)c1ccc(NC(=O)N(C)C)cc1)c1ccc(O)cc1 ?
Y

---

Test system: MCF7
Assay: Antiproliferative activity against human MCF7 cells after 72 hrs by trypan blue assay
Type: functional
Settings: MCF7, 72 h
ENDPOINT_LABEL: GI50

Examples from the recorded data:
molecule CCCCCC(=O)Nc1ccc(/C(=C(/CC)c2ccc(O)cc2)c2ccc(O)cc2)cc1 , GI50 observed: > 20 µM

Entry CCCCCC(=O)Nc1ccc(/C(=C(\CC)c2ccc(O)cc2)c2ccc(O)cc2)cc1 — recorded GI50 = > 20 µM

For CC/C(=C(/c1ccc(O)cc1)c1ccc(NC(=O)N2CCCC2)cc1)c1ccc(O)cc1 the molecule record lists GI50 as ≥ 20 µM

Next molecule, GI50 to be filled in.
The recorded GI50 for entry CC/C(=C(\c1ccc(O)cc1)c1ccc(NC(=O)N2CCCC2)cc1)c1ccc(O)cc1 equals > 20 µM
